Cited source: patent US12509445B2

Overview of recorded Post-emergence action STEME for various compounds
Tested on: Stellaria media (STEME)
Assay: Post-emergence herbicidal action
Assay type: in vivo
Conditions: 320 g/ha, visual rating after about 3 weeks vs untreated controls, 100% = plants have died
Dear colleague, please return just the value in %, with no unit written.

Some entries whose results are on file:
Record summary for "FC(F)(F)Oc1cccc(Oc2nc(C3CC3)cc(-n3cc(C(F)(F)F)cn3)n2)c1" : reported Post-emergence action STEME = 80

Form field Post-emergence action STEME, entry "FC(F)(F)c1cccc(Oc2nc(C3CC3)cc(-n3cc(C(F)(F)F)cn3)n2)c1" : 90

"FC(F)(F)c1cnn(-c2cc(C3CC3)nc(Oc3ccnc(C(F)(F)F)c3)n2)c1" has a reported Post-emergence action STEME of 100

Memo: "Cn1nc(C(F)(F)F)cc1Oc1nc(C2CC2)cc(-n2cc(C(F)(F)F)cn2)n1" , reported Post-emergence action STEME: 100

Consider now this further compound.
Per the record, "FC(F)(F)c1cnn(-c2cc(C3CC3)nc(Oc3csc(C(F)(F)F)c3)n2)c1" has Post-emergence action STEME of 100

====

Tested on: Viola tricolor (VIOTR)
Experiment: Pre-emergence herbicidal action
Assay type: in vivo
Conditions: 320 g/ha, visual scoring after about 3 weeks vs untreated controls, 100% = plants have died
REPORTED_METRIC: Pre-emergence action VIOTR (%)
Value expressed in %; do not type the unit.

Record excerpt, results attached:
Reported Pre-emergence action VIOTR of FC(F)(F)c1cnn(-c2cc(C3CC3)nc(Oc3csc(C(F)(F)F)c3)n2)c1 [IV-001] : 90

// sample FC(F)(F)Oc1cccc(Oc2nc(C3CC3)cc(-n3cc(C(F)(F)F)cn3)n2)c1 [II-004] , its Pre-emergence action VIOTR was 100

Just so you know, measured Pre-emergence action VIOTR for Cn1nc(C(F)(F)F)cc1Oc1nc(C2CC2)cc(-n2cc(C(F)(F)F)cn2)n1 [III-001] came out at 100

The molecule FC(F)(F)c1cnn(-c2cc(C3CC3)nc(Oc3ccnc(C(F)(F)F)c3)n2)c1 [Example I-001] showed Pre-emergence action VIOTR equal to 100

get_value(item= FC(F)Oc1cc(Oc2nc(C3CC3)cc(-n3cc(C(F)(F)F)cn3)n2)ccn1 [Example I-003] , readout=Pre-emergence action VIOTR) returns 100

Next:
The molecule FC(F)(F)c1cccc(Oc2nc(C3CC3)cc(-n3cc(C(F)(F)F)cn3)n2)c1 [II-001] showed Pre-emergence action VIOTR equal to 90

====

Tested on: Alopecurus myosuroides (ALOMY)
Experiment: Pre-emergence herbicidal action
Assay type: in vivo
Details: 320 g/ha, visual scoring after about 3 weeks vs untreated controls, 100% = plants have died
Overview of reported Pre-emergence action ALOMY across a group of compounds:
Reply with just the number (in %).

Query "FC(F)(F)c1cnn(-c2cc(C3CC3)nc(Oc3csc(C(F)(F)F)c3)n2)c1" yields Pre-emergence action ALOMY of 100

Documented Pre-emergence action ALOMY of "FC(F)(F)c1cccc(Oc2nc(C3CC3)cc(-n3cc(C(F)(F)F)cn3)n2)c1" : 100

Field Pre-emergence action ALOMY (entry "FC(F)Oc1cc(Oc2nc(C3CC3)cc(-n3cc(C(F)(F)F)cn3)n2)ccn1" ) reads 100

Measured Pre-emergence action ALOMY of "FC(F)(F)c1cnn(-c2cc(C3CC3)nc(Oc3ccnc(C(F)(F)F)c3)n2)c1" : 100

Short answer for "Cn1nc(C(F)(F)F)cc1Oc1nc(C2CC2)cc(-n2cc(C(F)(F)F)cn2)n1" : Pre-emergence action ALOMY was 100

Record "FC(F)(F)Oc1cccc(Oc2nc(C3CC3)cc(-n3cc(C(F)(F)F)cn3)n2)c1" , field Pre-emergence action ALOMY: 90

====

System: Echinochloa crus-galli (ECHCG)
Assay: Pre-emergence herbicidal action
Type: in vivo
Settings: 320 g/ha, visual scoring after about 3 weeks vs untreated controls, 100% = plants have died
Quick reference: Pre-emergence action ECHCG of the listed items.
Number first, unit second.

Illustrative cases are given below, each with its answer.
For record "FC(F)(F)c1cccc(Oc2nc(C3CC3)cc(-n3cc(C(F)(F)F)cn3)n2)c1" the listed Pre-emergence action ECHCG is 80%

Quick note, Pre-emergence action ECHCG for "FC(F)(F)c1cnn(-c2cc(C3CC3)nc(Oc3csc(C(F)(F)F)c3)n2)c1" landed at 100%

For record "FC(F)(F)c1cnn(-c2cc(C3CC3)nc(Oc3ccnc(C(F)(F)F)c3)n2)c1" the listed Pre-emergence action ECHCG is 100%

Recorded Pre-emergence action ECHCG (compound "Cn1nc(C(F)(F)F)cc1Oc1nc(C2CC2)cc(-n2cc(C(F)(F)F)cn2)n1" ): 100%

Shift focus to the following entry.
Reported Pre-emergence action ECHCG of "FC(F)Oc1cc(Oc2nc(C3CC3)cc(-n3cc(C(F)(F)F)cn3)n2)ccn1" : 90%

====

Test system: Viola tricolor (VIOTR)
Assay: Post-emergence herbicidal action
Assay type: in vivo
Settings: 320 g/ha, visual rating after about 3 weeks vs untreated controls, 100% = plants have died
# maps each entry to its Post-emergence action VIOTR
State the answer as a number, implicitly in %.

Note to self: Post-emergence action VIOTR recorded for "FC(F)(F)c1cccc(Oc2nc(C3CC3)cc(-n3cc(C(F)(F)F)cn3)n2)c1" was 100

Just so you know, measured Post-emergence action VIOTR for "Cn1nc(C(F)(F)F)cc1Oc1nc(C2CC2)cc(-n2cc(C(F)(F)F)cn2)n1" came out at 100

Sample "FC(F)(F)Oc1cccc(Oc2nc(C3CC3)cc(-n3cc(C(F)(F)F)cn3)n2)c1" ; Post-emergence action VIOTR observed: 90

The measured Post-emergence action VIOTR associated with "FC(F)(F)c1cnn(-c2cc(C3CC3)nc(Oc3ccnc(C(F)(F)F)c3)n2)c1" reads 100

Lookup result for "FC(F)(F)c1cnn(-c2cc(C3CC3)nc(Oc3csc(C(F)(F)F)c3)n2)c1" ; measured Post-emergence action VIOTR: 90

// next item, Post-emergence action VIOTR requested
compound "FC(F)Oc1cc(Oc2nc(C3CC3)cc(-n3cc(C(F)(F)F)cn3)n2)ccn1" , Post-emergence action VIOTR observed: 90

====

Listed here are compounds together with their documented Pre-emergence action SETVI.
System: Setaria viridis (SETVI)
Experiment: Pre-emergence herbicidal action
Type: in vivo
Conditions: 320 g/ha, visual scoring after about 3 weeks vs untreated controls, 100% = plants have died
Your answer is read as %, so omit the unit and give the number.

Guide cases for Pre-emergence action SETVI, answers given:
Noted for "FC(F)(F)c1cccc(Oc2nc(C3CC3)cc(-n3cc(C(F)(F)F)cn3)n2)c1" : its Pre-emergence action SETVI reads 100

Reported Pre-emergence action SETVI ( "FC(F)Oc1cc(Oc2nc(C3CC3)cc(-n3cc(C(F)(F)F)cn3)n2)ccn1" ) = 100

For reference, reported Pre-emergence action SETVI for "Cn1nc(C(F)(F)F)cc1Oc1nc(C2CC2)cc(-n2cc(C(F)(F)F)cn2)n1" stands at 100

Pre-emergence action SETVI reported for this compound "FC(F)(F)c1cnn(-c2cc(C3CC3)nc(Oc3ccnc(C(F)(F)F)c3)n2)c1" : 100

Query "FC(F)(F)c1cnn(-c2cc(C3CC3)nc(Oc3csc(C(F)(F)F)c3)n2)c1" yields Pre-emergence action SETVI of 90

Next compound, please.
Note to self: Pre-emergence action SETVI recorded for "FC(F)(F)Oc1cccc(Oc2nc(C3CC3)cc(-n3cc(C(F)(F)F)cn3)n2)c1" was 100

====

Property: Pre-emergence action POLCO; scope: individual molecules
Test system: Polygonum convolvulus (POLCO)
Assay: Pre-emergence herbicidal action
Assay type: in vivo
Settings: 320 g/ha, visual scoring after about 3 weeks vs untreated controls, 100% = plants have died
Numbers only here, please. The scale is %.

Examples with answers:
For this molecule ( FC(F)(F)Oc1cccc(Oc2nc(C3CC3)cc(-n3cc(C(F)(F)F)cn3)n2)c1 [II-004] ), measured Pre-emergence action POLCO is 90

Record FC(F)(F)c1cnn(-c2cc(C3CC3)nc(Oc3ccnc(C(F)(F)F)c3)n2)c1 [Example I-001] . Reported Pre-emergence action POLCO: 100

New cases:
The reported value for Cn1nc(C(F)(F)F)cc1Oc1nc(C2CC2)cc(-n2cc(C(F)(F)F)cn2)n1 [III-001] in terms of Pre-emergence action POLCO is 90

Briefly, Pre-emergence action POLCO measured for FC(F)Oc1cc(Oc2nc(C3CC3)cc(-n3cc(C(F)(F)F)cn3)n2)ccn1 [Example I-003] : 90

The reported value for FC(F)(F)c1cnn(-c2cc(C3CC3)nc(Oc3csc(C(F)(F)F)c3)n2)c1 [IV-001] in terms of Pre-emergence action POLCO is 80
